Target: Tyrosine-protein phosphatase non-receptor type 1 (Homo sapiens)
Sequence (whole entry): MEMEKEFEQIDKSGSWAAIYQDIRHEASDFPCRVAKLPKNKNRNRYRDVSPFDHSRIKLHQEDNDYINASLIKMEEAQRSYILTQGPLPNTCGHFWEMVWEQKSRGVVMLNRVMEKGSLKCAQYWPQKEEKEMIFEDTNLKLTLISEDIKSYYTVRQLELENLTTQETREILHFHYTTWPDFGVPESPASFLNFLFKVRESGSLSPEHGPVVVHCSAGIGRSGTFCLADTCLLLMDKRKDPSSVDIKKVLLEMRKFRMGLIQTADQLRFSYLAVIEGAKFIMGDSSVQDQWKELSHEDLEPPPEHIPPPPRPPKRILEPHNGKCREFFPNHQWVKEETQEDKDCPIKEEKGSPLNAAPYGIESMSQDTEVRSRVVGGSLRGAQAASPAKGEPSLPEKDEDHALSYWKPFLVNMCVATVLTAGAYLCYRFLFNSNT
Assay: Inhibition of N-terminal His tagged recombinant human PTP1B expressed in Escherichia coli using pNPP as substrate assessed as substrate hydrolysis at 40 umol/L relative to control
Details: dose 40.0 µmol/L
Numbered stars: 1 amine (or outer) side, 2 acyl side, 3 side chain; on linkers, the order of the positions; unused ones are H or OH. Square brackets hold non-standard residues; d marks the D form. Peptide text beside a SMILES is read from it. * marks the point of attachment. ξ: configuration not given here. Nonadecanoyl = CCCCCCCCCCCCCCCCCCC(=O)*; Glutaryl = O=C(CCCC(=O)[*:2])[*:1]; ξR = N=C(N)NCCCC(N)C(=O)O; Aun = NCCCCCCCCCCC(=O)O
The following compounds are listed with their measured inhibition values.

CCCCCCCCCCCCCCCCCCC(=O)N[C@H](C(=O)N[C@@H](C)C(=O)N[C@@H](CCC(N)=O)C(=O)N[C@@H](CCC(=O)O)C(=O)N[C@@H](CC(C)C)C(=O)N[C@@H](CCCNC(=N)N)C(=O)NC(CCCNC(=N)N)C(=O)N[C@H](C(=O)NCC(=O)N[C@@H](CC(=O)O)C(=O)N[C@@H](CCC(=O)O)C(=O)N[C@@H](Cc1ccccc1)C(=O)O)[C@@H](C)CC)[C@@H](C)CC (stereo partly drawn) (Nonadecanoyl-IAQELR[ξR]IGDEF-OH); > 50%
CC[C@H](C)[C@H](NC(=O)CCCC(=O)O)C(=O)N[C@@H](C)C(=O)N[C@@H](CCC(N)=O)C(=O)N[C@@H](CCC(=O)O)C(=O)N[C@@H](CC(C)C)C(=O)N[C@@H](CCCNC(=N)N)C(=O)N[C@@H](CCCNC(=N)N)C(=O)N[C@H](C(=O)NCC(=O)N[C@@H](CC(=O)O)C(=O)N[C@@H](CCC(=O)O)C(=O)N[C@@H](Cc1ccccc1)C(=O)O)[C@@H](C)CC (Glutaryl-IAQELRRIGDEF-OH); < 50%

Please examine the following record next.
Fill in the blank: the reported inhibition of CC[C@H](C)[C@H](NC(=O)CCCCCCCCCCN)C(=O)N[C@@H](C)C(=O)N[C@@H](CCC(N)=O)C(=O)N[C@@H](CCC(=O)O)C(=O)N[C@@H](CC(C)C)C(=O)N[C@@H](CCCNC(=N)N)C(=O)N[C@@H](CCCNC(=N)N)C(=O)N[C@H](C(=O)NCC(=O)N[C@@H](CC(=O)O)C(=O)N[C@@H](CCC(=O)O)C(=O)N[C@@H](Cc1ccccc1)C(=O)O)[C@@H](C)CC (H-[Aun]IAQELRRIGDEF-OH) is ____. < 50%
